tested on: Potassium voltage-gated channel subfamily H member 2, brain isoform KCNH2 3.1 (human); test: qHTS for Inhibitors of KCHN2 3.1: Mutant qHTS; conditions: U2OS KCNH2 3.1, thallium flux FluxOr; stronger effect = lower value; also: % is scaled to controls: 0 for no effect and ±100 for the full control effect
Out of some 340,000 compounds screened, about 3,300 (0.97%) were called active. This is one part of a sample in which actives are shown more often than they occur.
readout-kind: activity change (%)
Report the value in % with no unit label.

Would you please look over these solved cases?
COc1cc2ccc(C(C)=O)c(O)c2cc1OC : 5.97
O=Cc1cn(CCOc2ccc(F)cc2)c2ccccc12 : -5.46
O=C(O)C1CCCN1c1nc(Cl)ccc1[N+](=O)[O-] (stereo not given) : -2.11
COc1ccc(-c2[nH]nc3c2C(c2ccncc2)C(C#N)=C(N)O3)cc1 (stereo not given) : 4.99

Please find the next compound below.
Prompt line: Please give the measured activity change for this compound: COc1cc(C2C(C#N)=C(N)Oc3n[nH]c(-c4ccccn4)c32)cc(OC)c1OC (stereo not given)
Response line: -3.63
